The values you see were collected from patent US20260042849A1.

Target: MMP9 (Homo sapiens)
Sequence (P14780 107-707 limits assumed): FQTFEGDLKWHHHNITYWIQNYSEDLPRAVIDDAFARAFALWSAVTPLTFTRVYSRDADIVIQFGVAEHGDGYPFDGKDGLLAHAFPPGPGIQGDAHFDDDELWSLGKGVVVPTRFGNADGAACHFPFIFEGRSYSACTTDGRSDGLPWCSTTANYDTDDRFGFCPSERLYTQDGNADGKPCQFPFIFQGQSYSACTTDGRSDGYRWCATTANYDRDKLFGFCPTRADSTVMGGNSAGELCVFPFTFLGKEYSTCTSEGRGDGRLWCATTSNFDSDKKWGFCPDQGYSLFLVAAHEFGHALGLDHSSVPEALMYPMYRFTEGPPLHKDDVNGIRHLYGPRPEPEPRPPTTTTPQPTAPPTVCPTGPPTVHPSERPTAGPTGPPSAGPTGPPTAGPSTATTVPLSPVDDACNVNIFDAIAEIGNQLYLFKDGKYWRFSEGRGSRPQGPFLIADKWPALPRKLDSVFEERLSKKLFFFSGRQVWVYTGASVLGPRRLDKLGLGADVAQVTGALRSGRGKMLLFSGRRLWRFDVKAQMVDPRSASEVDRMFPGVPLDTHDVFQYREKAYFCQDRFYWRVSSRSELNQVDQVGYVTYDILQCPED
Experiment: In vitro cleavability of activatable antibodies, capillary electrophoresis
Format: biochemical
Parameters: purchased R&D Systems 911-MP
Conditions: 500 nM activatable antibody, 10 nM protease, 4 hours at 37° C.
measure-name: Cleavability (%) 4h MMP9

>  <substance>
APMGLKH [CM 7046, also tested as internally quenched peptide probe]

>  <measure-name>
Cleavability (%) 4h MMP9

>  <observed-result>
45.1

$$$$
>  <substance>
GPYGLL [CM 7048]

>  <measure-name>
Cleavability (%) 4h MMP9

>  <observed-result>
98.3

$$$$
>  <substance>
GPWGLL [CM 7043]

>  <measure-name>
Cleavability (%) 4h MMP9

>  <observed-result>
96.2

$$$$
